Provide the recorded kon for the entries that follow.
- Measured target: T1, human B7-H4 (purified monomeric recombinant human protein, ACRO biosystems) (human, UniProt Q7Z7D3 29-258, limits assumed, chemically biotinylated (EZ-Link NHS-LC-Biotin) in the yeast display and competition experiments; non-biotinylated in SPR)
- T1 construct: Bought recombinant monomeric protein; also called B7x; B7S1
- T1 sequence: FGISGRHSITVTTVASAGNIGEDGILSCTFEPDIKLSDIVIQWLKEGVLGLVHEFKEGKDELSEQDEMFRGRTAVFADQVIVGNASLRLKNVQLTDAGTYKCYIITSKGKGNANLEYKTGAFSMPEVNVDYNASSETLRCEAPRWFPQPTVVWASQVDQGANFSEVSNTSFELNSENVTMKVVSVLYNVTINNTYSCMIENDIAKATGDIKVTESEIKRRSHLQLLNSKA
- Protocol details: SPR (Carterra LSA); scFv-Fc captured on anti-human IgG Fc, antigen injected
Answers are plain numbers, in M⁻¹ s⁻¹.

These recorded examples may help you get a feel for the data.
Binder	Quantity unit	kon
G05 scFv-Fc (scFv, V domains shown, Tested as scFv-Fc fusion (human IgG1 Fc, vector pDNL9) in crude yeast supernatant; Combo 1 library; also called G5) VH: EVQLVESGGGVVQPGRSLRLSCAASGFTFSSRSMNWVRQAPGKGLEWVSAISGSGSTVYYADSVKGRFTISRDNSKNTLYLQMNSLRAEDTAVYYCARKRWYGMDVWGQGTTVTVSS VL: SYELTQPPSVSVAPGKTARITCGGNKLGDKWVHWYQQKPGQAPVLVVYEDVDRPSGIPERFSGSNSGNTATLTISRVEAGDEADYYCQVWDSRTYVFGTGTKLTVL	M⁻¹ s⁻¹	160000
A02 scFv-Fc (scFv, V domains shown, Tested as scFv-Fc fusion (human IgG1 Fc, vector pDNL9) in crude yeast supernatant; Combo 1 library) VH: EVQLVESGGGVVQPGRSLRLSCAASGFTFTSRAMNWVRQAPGKGLEWVSAISYEGRTQYYADSVKGRFTISRDNSKNTLYLQMNSLRAEDTAVYYCARKRWYGMDVWGQGTTVTVSS VL: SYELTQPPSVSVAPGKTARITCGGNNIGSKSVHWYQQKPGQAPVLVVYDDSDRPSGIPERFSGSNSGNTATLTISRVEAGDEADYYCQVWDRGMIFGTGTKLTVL	M⁻¹ s⁻¹	280000
A09 scFv-Fc (scFv, V domains shown, Tested as scFv-Fc fusion (human IgG1 Fc, vector pDNL9) in crude yeast supernatant; Combo 2 library) VH: EVQLVESGGGVVQPGRSLRLSCAASGFTFSSRSMNWVRQAPGKGLEWVSAISGSGLTSYYADSVKGRFTISRDNSKNTLYLQMNSLRAEDTAVYYCARKRWYGMDVWGQGTTVTVSS VL: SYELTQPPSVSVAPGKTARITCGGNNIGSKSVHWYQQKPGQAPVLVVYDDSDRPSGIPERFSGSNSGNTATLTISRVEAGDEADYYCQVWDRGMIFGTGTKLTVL	M⁻¹ s⁻¹	160000
B12 scFv-Fc (scFv, V domains shown, Tested as scFv-Fc fusion (human IgG1 Fc, vector pDNL9) in crude yeast supernatant; Combo 2 library) VH: EVQLVESGGGVVQPGRSLRLSCAASGFTFSDRAMNWVRQAPGKGLEWVSAISGTGASTYYADSVKGRFTISRDNSKNTLYLQMNSLRAEDTAVYYCARKRWYGMDVWGQGTTVTVSS VL: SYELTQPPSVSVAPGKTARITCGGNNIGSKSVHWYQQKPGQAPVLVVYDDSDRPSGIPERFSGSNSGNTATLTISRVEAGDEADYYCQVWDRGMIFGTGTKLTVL	M⁻¹ s⁻¹	340000

Which kon reading was recorded for the binder A10 scFv-Fc (scFv, V domains shown, Tested as scFv-Fc fusion (human IgG1 Fc, vector pDNL9) in crude yeast supernatant; Combo 2 library) VH: EVQLVESGGGVVQPGRSLRLSCAASGFTFSSRSMNWVRQAPGKGLEWVSAISGTGYTTYYADSVKGRFTISRDNSKNTLYLQMNSLRAEDTAVYYCARKRWYGMDVWGQGTTVTVSS VL: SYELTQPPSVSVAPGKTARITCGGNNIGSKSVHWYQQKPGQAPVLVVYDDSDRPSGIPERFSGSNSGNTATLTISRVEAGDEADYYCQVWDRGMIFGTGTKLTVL ?
140000
